Form field: TGI (one value per entry).
# Tested on: HOP-18 NSCLC
# method: NCI tumour cell line growth inhibition, 48 h
observed-property: TGI

molecule="CC(C)(C)c1ccc(OC2CCO2)cc1 (configuration not stated)" measured_result="> 100 µM"
molecule=O=C1c2cccc(O)c2C(=O)c2c(O)cc(CO)cc21 measured_result="> 100 µM"
molecule="C=CCNC(=O)N(CCC)CCCC(NC(C)=O)C(=O)NCc1ccccc1 (configuration not stated)" measured_result="> 100 µM"
molecule="CCCCCCCCCCCCCCCCCCOCC(COCCOCC[N+]1(CCCCCC(=O)[O-])CCCC1)Oc1ncccn1 (configuration not stated)" measured_result="13.7 µM"
molecule=COc1ccc2[nH]c(-c3ccc(O)cc3)cc(=O)c2c1 measured_result="> 29.9 µM"
molecule=COc1ccc2c(NCCCCCCNc3c4ccccc4nc4cc(OC)ccc34)c3ccccc3nc2c1 measured_result="10.9 µM"
molecule="c1ccc2c(c1)CCCC/C2=N/OCC1CO1 (configuration not stated)" measured_result="> 100 µM"

###

# Tested on: SR leukemia
# method: NCI tumour cell line growth inhibition, 48 h
observed-property: TGI (µM)

compound=C=CC1=C(C)C2=NC1=CC1=NC(=CC3=C(C)C4=C(O)[C@H](C(=O)OC)C(=C5NC(=C2)[C@@H](C)[C@@H]5CCC(=O)O)C4=N3)C(CC)=C1C observed_property=TGI operator_symbol== measured_result=1.5
compound=O=S1(=O)c2cnccc2NC(=NCc2ccccc2)N1c1ccccc1 observed_property=TGI operator_symbol=> measured_result=100
compound="C(=C\\c1ccccc1)/COc1ccccc1C(N1CCOCC1)n1nc2ccccc2n1 (stereo not given)" observed_property=TGI operator_symbol== measured_result=5.49
compound="COC(=O)C1(O)C(c2ccccc2)=NC2(C)CCCC21 (stereo not given)" observed_property=TGI operator_symbol=> measured_result=100
compound=COc1ccc(-c2cnoc2-c2cc(OC)c3c(c2)OCCO3)cc1 observed_property=TGI operator_symbol== measured_result=6.29

###

Entries and their measured TGI follow.
# Test system: HOP-62 NSCLC
# method: NCI tumour cell line growth inhibition, 48 h
observed-property: TGI

compound="CN1CCN(C2=C(Cl)C3(OCCS3)C(F)(F)C2(F)F)CC1 (stereo not given)" measured_result="> 100 µM"
compound="C=C1C2Oc3ccccc3C1N(c1ccccc1)O2 (stereo not given)" measured_result="> 100 µM"
compound=O=C1/C(=C/c2ccc([N+](=O)[O-])cc2)COc2ccc(O)cc21 measured_result="> 100 µM"
compound="O=C(CC(C(=O)c1ccco1)c1ccco1)c1ccco1 (stereo not given)" measured_result="> 100 µM"
compound="COc1ccc(N2C(=O)C3c4[nH]c5ccccc5c4C4CCCCCCCCCC4C3C2=O)cc1 (stereo not given)" measured_result="> 10 µM"
compound=C[n+]1c(/C=C/c2ccc(O)c3ncccc23)[se]c2ccccc21 measured_result="19.1 µM"
compound=C[C@]12CC[C@@H]3c4ccc(O)cc4CC[C@H]3[C@@H]1C/C(=C\c1ccc(C#N)cc1)C2=O measured_result="> 100 µM"
compound=O=C(NCCN1CCNCC1)c1ccc(Nc2nc3ccccc3c3occc23)cc1 measured_result="22.4 µM"
compound=O=C(O)/C=C\C(=O)Nc1ccc(S(=O)(=O)c2ccc(NC(=O)/C=C\C(=O)O)cc2)cc1 measured_result="> 100 µM"
compound=O=c1c2ccccc2sc2ccccc12 measured_result="> 100 µM"
